Sourced from PubChem BioAssay (NCI)

- System: U251 CNS
- assay.text: NCI-60 one-dose screen, 48 h (100 = growth as untreated, 0 = no growth, -100 = all killed)
- experimental.parameters: 10 µM unless noted
This is part of a sample that, as a whole, favours compounds with a hit. Of some 83,000 tested, about 20% had one in any assay.
# if value of growth reaches 60%, tag fulfilled; if it stays below, tag not fulfilled

compound | class
C#CC(=O)/C=C/CCCCCCC#CC(=O)CCC(=O)C#CCCCCCC/C=C/C(=O)C#C | not fulfilled
O=C1OC(=O)C2C3CC(c4ccccc43)C12 (stereo unspecified) | fulfilled
CC(C)NCC(O)COc1ccc(CC(N)=O)cc1 (stereo unspecified) | fulfilled
COc1cc(/C=C/C(=O)c2c(C)[n+]([O-])c3ccccc3[n+]2[O-])ccc1O | fulfilled
O[C@@H]1CCO[C@H](c2ccc3ccccc3c2)C1 | fulfilled

In the following, a different compound is considered.
Task: Check if growth >= 60% (inclusive). Item: CNCCCOc1c(Br)cc(CCNC(=O)/C(Cc2cc(Br)c(OC)c(Br)c2)=N/O)cc1Br
Result: not fulfilled

* * *

- Test system: MDA-MB-231 breast
- assay.text: NCI-60 one-dose screen, 48 h (100 = growth as untreated, 0 = no growth, -100 = all killed)
- experimental.parameters: 10 µM unless noted
Compounds without any hit were thinned out: in the full panel of roughly 83,000, 20% have a hit.
# if value of growth reaches 60%, tag 1.0; if it stays below, tag 0.0

molecule | class
S=c1ssnc1-c1ccccn1 | 0.0
Nc1ncnc2c1c(C(F)(F)F)cn2[C@@H]1O[C@H](CO)[C@@H](O)[C@H]1O | 0.0
NC(CCCC(N)C(=O)c1ccccc1)C(=O)O (stereo not given) | 1.0
NS(=O)(=O)c1ccc(CCN2C(=O)/C(=C\c3ccc(Cl)cc3)C=C2c2ccc(Oc3ccccc3)cc2)cc1 | 1.0
Nc1ncnc2c1c(-c1ccc(Oc3ccccc3)cc1)nn2C[C@@H]1SSC[C@H]1O | 0.0

Task: Check if growth >= 60% (inclusive). Item: N#CC(C#N)=C(C#N)c1c[nH]c2ccccc12
Result: 1.0

Task: Check if growth >= 60% (inclusive). Item: CN(C)CCS(=O)(=O)Nc1cc(-c2ccc3ncnc(Nc4ccc(F)c(Cl)c4)c3c2)cnc1Cl
Result: 0.0

Task: Check if growth >= 60% (inclusive). Item: COc1cc(-c2nc3sc(C)cn3c2/C=C2\C(=O)Nc3ccccc32)c(Br)c(OC)c1OC
Result: 1.0

Task: Check if growth >= 60% (inclusive). Item: Cc1nssc1=S
Result: 1.0

* * *

- Tested on: KM12 colon
- assay.text: NCI-60 one-dose screen, 48 h
- experimental.parameters: 10 µM unless noted
- Method: Growth inhibition of the KM12 human tumor cell line is measured as a screen for anti-cancer activity. Cells are grown in 96 well plates and exposed to the test compound for 48 hours. Compounds are tested at a single concentration, which is 10^-5 M for most compounds. The reported endpoint is percent growth (GI% or GIPRCNT), where numbers from 0 - 100% represent growth inhibition, and numbers from -100% - 0 represent cell death. For example, a value of 40 represents 60% growth inhibition. […]
This is part of a sample that, as a whole, favours compounds with a hit. Of some 83,000 tested, about 20% had one in any assay. Calls of active or inactive are those of the source. The calls were made as follows: active = growth percent below 10; inactive = the rest.
Choose the fitting class; nothing outside class 1 = active, class 0 = inactive is accepted.

# example entries with known answers
compound | class
COc1cc(NC(C)CCCN2C(=O)c3ccccc3C2=O)c2nc(C)ccc2c1OC (stereo not given) | class 0
Cc1c(C(C)(C)C)cc(C(C)(C)C)c2c1CN(C)CO2 | class 0
Nc1c(C(=O)O)[nH]c(=O)[nH]c1=O | class 0

Task: Hi, sorry to bother you, what did the test record for O=C(Cn1c2ccccc2c2ccncc21)N/N=C/c1cc(O)c(O)c(O)c1 ?
Result: class 0

Task: Hi, sorry to bother you, what did the test record for O=C1C(Cl)=C(Nc2cccc3cc4ccccc4nc23)C(=O)c2ccccc21 ?
Result: class 0

Task: Hi, sorry to bother you, what did the test record for CN(C)c1ccc(/C=N/n2c(-c3cc(F)c(Cl)cc3Cl)nn(CN3CCOCC3)c2=S)cc1 ?
Result: class 0
